Reference source: ChEMBL document CHEMBL3112389

target or system: Aldehyde dehydrogenase 1A1 (Homo sapiens, UniProt P00352)
Sequence (P00352 whole entry): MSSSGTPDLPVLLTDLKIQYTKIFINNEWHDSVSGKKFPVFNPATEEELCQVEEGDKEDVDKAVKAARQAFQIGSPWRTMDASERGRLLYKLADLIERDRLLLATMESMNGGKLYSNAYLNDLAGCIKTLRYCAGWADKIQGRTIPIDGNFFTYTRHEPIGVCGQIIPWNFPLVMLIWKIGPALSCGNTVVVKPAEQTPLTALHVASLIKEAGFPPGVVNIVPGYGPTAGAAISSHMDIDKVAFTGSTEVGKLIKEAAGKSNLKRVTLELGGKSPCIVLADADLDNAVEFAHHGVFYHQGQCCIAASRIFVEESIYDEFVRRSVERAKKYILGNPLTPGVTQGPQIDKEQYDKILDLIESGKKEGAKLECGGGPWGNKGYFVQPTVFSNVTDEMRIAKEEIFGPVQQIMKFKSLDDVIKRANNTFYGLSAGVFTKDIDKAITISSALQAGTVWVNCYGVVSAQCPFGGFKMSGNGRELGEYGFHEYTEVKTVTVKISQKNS
run description: Inhibition of human ALDH1A1 using propionaldehyde as substrate preincubated for 1 min followed by substrate addition by spectrophotometric analysis
measured attribute: IC50

# count of solved cases: 10
Task: Give IC50 only, for COc1ccc(S(=O)(=O)n2cnc3cc([N+](=O)[O-])ccc32)cc1 , using Aldehyde dehydrogenase 1A1 (Homo sapiens, UniProt P00352) data.
Result: Not Active

Task: Supply IC50 measured with Aldehyde dehydrogenase 1A1 (Homo sapiens, UniProt P00352) for O=S(=O)(c1ccc(Cl)cc1)n1c(C2CCCCC2)nc2ccccc21 .
Result: Not Active

Task: # assay system Aldehyde dehydrogenase 1A1 (Homo sapiens, UniProt P00352): give IC50 of Cc1nc2ccccc2n1S(=O)(=O)c1ccc(Cl)cc1Br
Result: Not Active

Task: State, for Aldehyde dehydrogenase 1A1 (Homo sapiens, UniProt P00352), measured IC50 of the compound listed here: COc1cc(F)ccc1S(=O)(=O)n1cnc2ccccc21
Result: Not Active

Task: State measured IC50 of the compound Cc1cc2ncn(S(=O)(=O)c3ccc(F)cc3)c2cc1C with Aldehyde dehydrogenase 1A1 (Homo sapiens, UniProt P00352).
Result: Not Active

Task: // fetch IC50; item: O=S(=O)(c1ccccc1)n1cnc2ccccc21 ; system: Aldehyde dehydrogenase 1A1 (Homo sapiens, UniProt P00352)
Result: Not Active

Task: Fill: IC50 (Aldehyde dehydrogenase 1A1 (Homo sapiens, UniProt P00352)) for this compound Cc1ccc(S(=O)(=O)n2cnc3ccccc32)cc1
Result: Not Active

Task: Give Aldehyde dehydrogenase 1A1 (Homo sapiens, UniProt P00352) IC50 for the following compound: CC(=O)Nc1ccc(S(=O)(=O)n2cnc3ccccc32)cc1
Result: Not Active

Task: Give reported IC50 for CC(C)Cc1ccc(S(=O)(=O)n2cnc3ccccc32)cc1 (Aldehyde dehydrogenase 1A1 (Homo sapiens, UniProt P00352))
Result: Not Active

Task: // fetch IC50; item: O=S(=O)(c1ccc(Cl)cc1)n1cnc2ccccc21 ; system: Aldehyde dehydrogenase 1A1 (Homo sapiens, UniProt P00352)
Result: Not Active

Continuing:
Task: Enter recorded IC50 with Aldehyde dehydrogenase 1A1 (Homo sapiens, UniProt P00352) for O=S(=O)(c1ccc(Cl)cc1)n1c(Cc2ccccc2)nc2ccccc21 here.
Result: Not Active

Task: Lab note: record IC50 of COc1cc(F)ccc1S(=O)(=O)n1c(C)nc2ccccc21 tested on Aldehyde dehydrogenase 1A1 (Homo sapiens, UniProt P00352).
Result: Not Active

Task: // output IC50; input CC(=O)Nc1ccc(S(=O)(=O)n2c(C)nc3ccccc32)cc1 ; system Aldehyde dehydrogenase 1A1 (Homo sapiens, UniProt P00352)
Result: Not Active
